Consider the following molecules; for each one, report its fold induction at 8 µM.
- Tested on: T-cell
- Assay Name: IL-2 secretion from T-cells stimulated with anti-CD3 antibody alone (Biological Example 2)
- Format: cell-based, human
- Condition Details: T-cell; fold change over baseline; 8 μM Cbl-b inhibitor; primary human total T-cells; read-out: IL-2 secretion Anti-CD3 stimulation

input: Need fold induction at 8 µM of Cc1cnnn1C[C@@H](C)c1cccc(NC(=O)c2cccc(C(F)(F)F)n2)c1 [Compound 312a] , thanks.
output: 0.151 to 0.2

input: Another: "C[C@H](Cc1nncn1C)c1cccc(NC(=O)c2cc(S(N)(=O)=O)cc(C(F)(F)F)n2)c1"
output: 0.051 to 0.1

input: Another: "Cc1ccc(C(=O)Nc2cccc([C@H](C)Sc3nncn3C)c2)nc1C"
output: > 0.201

input: Another: "COc1ccc(C(=O)Nc2cccc([C@H](C)Sc3nncn3C)c2)nc1C1CC1"
output: 0.101 to 0.15

input: Another: "C[C@H](Sc1nncn1C)c1cccc(NC(=O)c2cc(Cl)cc(C(F)(F)F)n2)c1"
output: 0.051 to 0.1

input: Another: "C[C@H](Sc1nncn1C)c1cccc(NC(=O)c2cc(C(F)(F)F)cc(C3CC3)n2)c1"
output: < 0.05

input: Another: "C[C@H](Cc1nncn1C)c1cccc(N2Cc3c(cc(C(=O)N4CC[C@H](O)C4)cc3C3CC3)C2=O)c1"
output: 0.101 to 0.15

input: Another: "C[C@H](Sc1nncn1C)c1cccc(NC(=O)c2cccc(C(C)(F)F)n2)c1"
output: 0.151 to 0.2

input: Another: "C[C@H](Sc1nncn1C)c1cccc(NC(=O)c2cc3c(Cl)cccc3[nH]2)c1"
output: > 0.201

input: Another: "Cc1ccc(C(=O)Nc2cccc([C@H](C)Cc3nnc[nH]3)c2)nc1C1CC1"
output: < 0.05

input: Another: "C[C@H](Cc1nncn1C)c1cccc(NC(=O)c2cc(C(C)(C)O)cc(C(F)(F)F)n2)c1"
output: > 0.201

input: Another: "C[C@H](Cc1nncn1C)c1cccc(NC(=O)c2cccc(S(C)(=O)=O)n2)c1"
output: 0.051 to 0.1

input: Another: "C[C@H](Cc1nncn1C)c1cc(OCCO)nc(N2Cc3c(cccc3C(F)(F)F)C2=O)c1"
output: > 0.201

input: Another: "C[C@H](Cc1nncn1C)c1cccc(NC(=O)c2ccc(CO)c(C3CC3)n2)c1"
output: > 0.201

input: Another: "C[C@H](Cc1nncn1C)c1cc(NC2CCC2)nc(N2Cc3c(cccc3C(F)(F)F)C2=O)c1"
output: 0.151 to 0.2

input: Another: "C[C@H](Cc1nncn1C)c1cccc(NC(=O)c2cccc(C(C)(C)C)n2)c1"
output: > 0.201

====

- Assayed Target: Cbl-b (Homo sapiens, UniProt Q13191)
- Sequence (Q13191 36-427): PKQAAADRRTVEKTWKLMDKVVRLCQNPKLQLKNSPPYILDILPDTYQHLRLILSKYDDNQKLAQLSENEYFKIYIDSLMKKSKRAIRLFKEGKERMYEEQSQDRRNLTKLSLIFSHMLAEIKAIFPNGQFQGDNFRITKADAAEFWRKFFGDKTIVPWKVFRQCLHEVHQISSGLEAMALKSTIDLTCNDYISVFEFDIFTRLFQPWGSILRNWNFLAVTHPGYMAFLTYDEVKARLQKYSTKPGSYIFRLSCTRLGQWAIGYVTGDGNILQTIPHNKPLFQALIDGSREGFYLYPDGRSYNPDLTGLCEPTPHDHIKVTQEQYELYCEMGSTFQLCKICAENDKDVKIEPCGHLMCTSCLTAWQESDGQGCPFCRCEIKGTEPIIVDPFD
- Assay Name: Cbl-b inhibition assay (Cbl-b activity assay, FRET, Biological Example 1; 100 mM NaCl, 60 nM Src kinase)
- Assay type: biochemical
- Condition Details: upper bound stated in text lists; read-out: IC50 values in the Cbl-b inhibition assay of Biological Example 1
Readout: IC50

input: Need IC50 of "CN1C2CCC1CN(c1cc3c(c(C(F)(F)F)c1)CN(c1cccc([C@@](C)(F)C(F)(F)c4nncn4C)c1)C3=O)C2" , thanks.
output: ≤ 100 nM

input: Another: "Cc1nc(C(=O)Nc2cccc([C@H](C)Sc3nncn3C)c2)ccc1Cl"
output: ≤ 500 nM

input: Another: "CCNc1cc([C@H](C)Cc2nncn2C)cc(N2Cc3c(cccc3C(F)(F)F)C2=O)n1"
output: ≤ 100 nM

input: Another: "C[C@H](Cc1nncn1C)c1cccc(N2Cc3c(cc([C@@H](C)N4CC[C@H](F)C4)cc3C(F)(F)F)C2=O)c1"
output: ≤ 100 nM

input: Another: Cn1cnnc1[C@@H](F)C1(c2cccc(N3Cc4c(cc(CN5C6CCC5CC6)cc4C(F)(F)F)C3=O)c2)COC1 [Example 671a]
output: ≤ 100 nM

input: Another: "Cn1cnnc1CC1(c2cccc(NC(=O)c3[nH]nc4c3OCCC4)c2)COC1"
output: ≤ 100 nM

input: Another: "C[C@H](Cc1nncn1C)c1cccc(NC(=O)c2cc(C(C)(C)O)c(Cl)cn2)c1"
output: ≤ 500 nM

input: Another: Cn1cnnc1[C@H](F)[C@@](C)(F)c1cccc(N2Cc3c(cc(C4CC4)cc3C(F)(F)F)C2=O)c1 (stereo in doubt)
output: ≤ 300 nM

input: Another: Cn1cnnc1CC1(c2cccc(N3Cc4c(cc(C5CCCOC5)cc4C(F)(F)F)C3=O)c2)COC1 (centres unmarked)
output: ≤ 100 nM

input: Another: CN1CCC(=O)C(Cc2cc3c(c(C(F)(F)F)c2)CN(c2cccc(C4(Cc5nncn5C)COC4)c2)C3=O)C1 (centres unmarked)
output: ≤ 100 nM

input: Another: "CN1C2CCC1CN(c1cc3c(c(C(F)(F)F)c1)CN(c1cccc(C4(Cc5nncn5C)COC4)c1)C3=O)C2"
output: ≤ 100 nM

input: Another: Cn1cnnc1CC1(c2cccc(N3Cc4c(cc(CN5CCOC(C6CCC6)C5)cc4C(F)(F)F)C3=O)c2)COC1 (centres unmarked)
output: ≤ 100 nM

input: Another: Cn1cnnc1C(F)(F)C(C)(F)c1cccc(N2Cc3c(cccc3C(F)(F)F)C2=O)c1 (racemic)
output: ≤ 1000 nM

input: Another: "Cn1cnnc1C(F)(F)[C@](C)(F)c1cccc(N2Cc3c(cc(N4CCNCC4)cc3C(F)(F)F)C2=O)c1"
output: ≤ 100 nM

====

- Test system: T-cell
- Assay Name: CD25 cell surface staining on T-cells stimulated with anti-CD3 antibody alone (Biological Example 2)
- Assay type: cell-based, human
- Condition Details: T-cell; fold change over baseline; 1 μM Cbl-b inhibitor; primary human total T-cells; read-out: CD25 staining Anti-CD3 stimulation
Counter-ions that a name gives are not always drawn.
Consider the following compounds; for each one, report its fold induction at 1 µM.

input: Can you look up fold induction at 1 µM on T-cell for "C[C@H](Cc1nncn1C)c1cccc(NC(=O)c2ccnc(C3CC3)n2)c1" ?
output: > 1

input: Another: "C[C@H](Cc1nncn1C)c1cccc(NC(=O)c2cncc(C(F)(F)F)n2)c1"
output: 0.601 to 0.8

input: Another: C[C@H](Sc1nncn1C)c1ccnc(N2Cc3c(cccc3C(F)(F)F)C2=O)c1 [Compound 172a]
output: < 0.6

input: Another: Cc1conc1CC(C)c1cccc(N2Cc3c(cccc3C(F)(F)F)C2=O)c1 (stereo not drawn)
output: 0.601 to 0.8

input: Another: "C[C@H](Sc1nncn1C)c1cccc(NC(=O)c2cc3c(Cl)cccc3[nH]2)c1"
output: 0.601 to 0.8

input: Another: "C[C@H](Sc1nncn1C)c1cccc(NC(=O)c2cccc(S(C)(=O)=O)n2)c1"
output: < 0.6

input: Another: "C[C@H](Cc1nncn1C)c1cccc(NC(=O)c2[nH]nc3c2CCCC3)c1"
output: 0.601 to 0.8

input: Another: C[C@H](Sc1nncn1C)c1cccc(NC(=O)c2cc3cc(OCC(=O)NCCN)ccc3cn2)c1 [Compound 311, hydrochloride]
output: 0.601 to 0.8

input: Another: Cc1cnnn1C[C@@H](C)c1cccc(NC(=O)c2cccc(C(F)(F)F)n2)c1 [Compound 312a]
output: 0.601 to 0.8

input: Another: "Cc1cc(C(=O)Nc2cccc(C3(Cc4nncn4C)COC3)c2)nc(C2CC2)c1"
output: > 1

input: Another: Cc1nc2cc([C@H](C)Sc3nncn3C)cc(NC(=O)c3cccc(C(F)(F)F)n3)c2o1 [Compound 130a]
output: 0.601 to 0.8

input: Another: Cn1cnnc1C(F)(F)C(C)(F)c1cccc(N2Cc3c(cccc3C(F)(F)F)C2=O)c1 (racemic)
output: 0.601 to 0.8

input: Another: "C[C@H](Sc1nncn1C)c1cccc(NC(=O)c2ccc(CO)c(C3CC3)n2)c1"
output: < 0.6

input: Another: "Cc1cc(C(=O)Nc2cccc(C3(Cc4nncn4C)COC3)c2)nc(C(F)(F)F)n1"
output: 0.801 to 1

input: Another: "CC(C)Nc1cc([C@H](C)Cc2nncn2C)cc(N2Cc3c(cccc3C(F)(F)F)C2=O)n1"
output: 0.801 to 1

input: Another: "C[C@@H](Cc1nncn1C)c1cccc(NC(=O)c2cc(C(=O)N3CC[C@H](O)C3)cc(C3CC3)n2)c1"
output: < 0.6

input: Another: "C[C@H](Cc1nncn1C)c1cccc(N2Cc3c(cc(C(=O)N4CC(O)C4)cc3C3CC3)C2=O)c1"
output: 0.801 to 1

input: Another: "C[C@H](Sc1nncn1C)c1ccnc(NC(=O)c2cc(Cl)cc(C(F)(F)F)n2)c1"
output: < 0.6

input: Another: "Cn1cnnc1[C@@H]1C[C@@H]1c1cccc(N2Cc3c(cccc3C(F)(F)F)C2=O)c1"
output: 0.601 to 0.8

input: Another: "C[C@H](Cc1nncn1C)c1cccc(NC(=O)c2cc(C(C)(C)O)cc(C(F)(F)F)n2)c1"
output: 0.801 to 1

input: Another: "C[C@H](Sc1nncn1C)c1cccc(NC(=O)c2cccc(C(C)(F)F)n2)c1"
output: 0.801 to 1
